target-under-test: Nuclear receptor ROR-gamma (Mus musculus)
measurement-notes: Concentration response confirmation assay for inhibitors of ROR gamma transcriptional activity
condition-summary: Drosophila S2 Gal4-RORgamma UAS-luciferase, 20 h; series mostly up to 46.1 µM
Results filed as inconclusive are left out. Calls of active or inactive are those of the source. Calls come from the whole dose curve; as a rule, active = well fitted inhibition curve with a large enough effect; inconclusive = small, poorly fitted or top-dose-only effect, or effect the other way; inactive = no such curve, though single readings can be large or run the other way.
Possible outcomes: yes (1) for active, no (0) for inactive

molecule=CNc1cc(C(F)(F)F)nc(-c2ccccn2)n1 assigned_class="yes (1)"
molecule=Clc1ccccc1/C=N/NC1=Nc2cccc3cccc1c23 assigned_class="yes (1)"
molecule="CCC(C)[C@H](NC(=O)NCc1ccco1)C(=O)O (stereo partly specified)" assigned_class="no (0)"
molecule=Cc1ccc(OCCn2cc(C(=S)N3CCCC3)c3ccccc32)cc1C assigned_class="yes (1)"
molecule=CCOc1ccc(C(=O)Nc2nc3ccccc3[nH]2)cc1OCC assigned_class="yes (1)"
molecule="COc1ccc(C(C#N)N2N=C(C)CC2c2ccccc2)cc1 (stereo unspecified)" assigned_class="no (0)"
molecule=COc1ccc(OCC(=O)NNc2nc3ccccc3s2)cc1 assigned_class="yes (1)"
molecule=CCOc1ccc2nc(NC(=O)c3cnccn3)sc2c1 assigned_class="yes (1)"
molecule="O=C1NC2=C(C(=O)CCC2)C(c2ccccc2)N1 (stereo unspecified)" assigned_class="no (0)"
molecule=CCN1C(=O)/C(=C/c2ccc(N3CCCC3)cc2)NC1=S assigned_class="yes (1)"
molecule=COc1ccc2oc(=O)c(C(=O)Nc3ccccc3C)cc2c1 assigned_class="yes (1)"
